# Protocol: Apparent permeability from apical to basolateral side of the human Caco-2 membrane
# Assay type: ADME, cell-based
Measurement Kind: Papp A→B (×10⁻⁶ cm/s)
Give a bare numeral; the unit ×10⁻⁶ cm/s is implied.

Just so you know, measured Papp A→B for CCOC(=O)N(Cc1ccccc1-c1ccccc1)[C@H]1CCNC1 came out at 27

====

# Test Target: Sodium-dependent dopamine transporter (Homo sapiens, UniProt Q01959)
# Sequence (Q01959 whole entry): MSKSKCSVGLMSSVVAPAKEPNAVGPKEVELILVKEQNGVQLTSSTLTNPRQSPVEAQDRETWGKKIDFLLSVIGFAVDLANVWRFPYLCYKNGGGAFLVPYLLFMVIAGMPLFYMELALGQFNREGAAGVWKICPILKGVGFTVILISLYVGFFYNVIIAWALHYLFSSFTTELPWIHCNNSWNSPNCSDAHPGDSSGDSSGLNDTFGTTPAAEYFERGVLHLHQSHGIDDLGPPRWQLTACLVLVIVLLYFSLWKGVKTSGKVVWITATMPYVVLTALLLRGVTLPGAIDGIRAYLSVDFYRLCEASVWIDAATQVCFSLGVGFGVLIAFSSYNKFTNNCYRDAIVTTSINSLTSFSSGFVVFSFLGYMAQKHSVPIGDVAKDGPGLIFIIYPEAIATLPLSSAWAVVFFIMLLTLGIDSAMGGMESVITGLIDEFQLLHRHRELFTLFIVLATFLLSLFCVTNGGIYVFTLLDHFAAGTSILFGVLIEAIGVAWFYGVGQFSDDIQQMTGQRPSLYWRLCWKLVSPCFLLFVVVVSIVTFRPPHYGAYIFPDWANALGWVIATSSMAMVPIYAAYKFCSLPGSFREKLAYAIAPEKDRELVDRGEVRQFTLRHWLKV
# Protocol: Inhibition of [3H]dopamine reuptake at human DAT expressed in HEK293 cells by SPA
Item-by-item account of Ki
Give a bare numeral; the unit nM is implied.

Entry CN(C)C(=O)N(Cc1ccccc1-c1ccccc1)[C@H]1CCNC1 , tested on Sodium-dependent dopamine transporter (Homo sapiens, UniProt Q01959), has a reported Ki of 2970

Entry O=C(N1CCCC1)N(Cc1ccccc1-c1ccccc1)[C@H]1CCNC1 , tested on Sodium-dependent dopamine transporter (Homo sapiens, UniProt Q01959), has a reported Ki of 4190

Entry CC(C)OC(=O)N(Cc1ccccc1-c1ccccc1)[C@H]1CCNC1 , tested on Sodium-dependent dopamine transporter (Homo sapiens, UniProt Q01959), has a reported Ki of 2010

Entry CS(=O)(=O)N(Cc1ccccc1Oc1ccccc1)[C@H]1CCNC1 , tested on Sodium-dependent dopamine transporter (Homo sapiens, UniProt Q01959), has a reported Ki of 2550

Entry CCCC(=O)N(Cc1ccccc1-c1ccccc1)[C@H]1CCNC1 , tested on Sodium-dependent dopamine transporter (Homo sapiens, UniProt Q01959), has a reported Ki of 2610

New cases:
Entry COC(=O)N(Cc1ccccc1-c1ccccc1)[C@H]1CCNC1 , tested on Sodium-dependent dopamine transporter (Homo sapiens, UniProt Q01959), has a reported Ki of 3190

Entry CCOC(=O)N(Cc1ccccc1-c1ccccc1)[C@@H]1CCNC1 , tested on Sodium-dependent dopamine transporter (Homo sapiens, UniProt Q01959), has a reported Ki of 2910

Entry CC(C)S(=O)(=O)N(Cc1ccccc1-c1ccccc1)[C@H]1CCNC1 , tested on Sodium-dependent dopamine transporter (Homo sapiens, UniProt Q01959), has a reported Ki of 2700

Entry CCOC(=O)N(Cc1ccccc1C(F)(F)F)[C@H]1CCNC1 , tested on Sodium-dependent dopamine transporter (Homo sapiens, UniProt Q01959), has a reported Ki of 3210

Entry CCCS(=O)(=O)N(Cc1ccccc1-c1ccccc1)[C@H]1CCNC1 , tested on Sodium-dependent dopamine transporter (Homo sapiens, UniProt Q01959), has a reported Ki of 2070
